- assayed_system: Cyclooxygenase-2 (Mus musculus, UniProt Q05769)
- Construct: endogenous in cells
- Sequence (Q05769 18-604): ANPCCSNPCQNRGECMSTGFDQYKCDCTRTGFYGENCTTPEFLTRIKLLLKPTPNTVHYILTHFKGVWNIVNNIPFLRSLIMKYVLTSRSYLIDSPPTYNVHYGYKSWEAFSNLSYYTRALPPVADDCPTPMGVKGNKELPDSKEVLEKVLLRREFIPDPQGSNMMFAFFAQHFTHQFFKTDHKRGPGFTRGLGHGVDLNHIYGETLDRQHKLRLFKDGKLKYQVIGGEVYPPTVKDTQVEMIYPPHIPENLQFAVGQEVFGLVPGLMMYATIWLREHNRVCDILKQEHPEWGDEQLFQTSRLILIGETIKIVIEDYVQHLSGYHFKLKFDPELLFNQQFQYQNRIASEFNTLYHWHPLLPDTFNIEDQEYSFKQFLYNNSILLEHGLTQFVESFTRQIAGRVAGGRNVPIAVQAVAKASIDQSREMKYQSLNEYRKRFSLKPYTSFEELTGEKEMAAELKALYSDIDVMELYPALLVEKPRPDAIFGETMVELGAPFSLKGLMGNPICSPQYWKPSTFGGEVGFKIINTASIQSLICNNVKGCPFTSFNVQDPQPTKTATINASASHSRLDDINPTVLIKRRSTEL
- test: COX-2 assay: LPS-stimulated PGE2 production in mouse peritoneal macrophages (RIA)
- assay_setup: mouse peritoneal macrophages, LPS 1 mg/L 9 h, PGE2 by RIA
measured_metric: IC50 (nM)

Example cases with answers are listed next.
• CS(=O)(=O)c1ccc(C2=C(c3cccc(Cl)c3)CN(C3CC3)C2=O)cc1 [Example 108] = 783
• CS(=O)(=O)c1ccc(C2=C(c3ccccc3)C(=O)N(C3CC3)C2)cc1 [Example 116] = 25.3
• CCCN1CC(c2ccc(S(C)(=O)=O)cc2)=C(c2ccc(Cl)cc2)C1=O [Example 124] = 24.5

P. CN1CC(c2ccc(S(C)(=O)=O)cc2)=C(c2ccc(F)cc2)C1=O [Example 120]
Q. CCCN1CC(c2cccc(F)c2)=C(c2ccc(S(N)(=O)=O)cc2)C1=O [Example 135]
Compare the recorded IC50 of P and Q ; state which is larger. Which one? Tell me its label. Q
(Q: 564 nM, P: 13.8 nM)

A. CS(=O)(=O)c1ccc(C2=C(c3ccc(F)cc3)C(=O)N(C3CC3)C2)cc1 [Example 128]
B. CCCN1CC(c2ccc(S(C)(=O)=O)cc2)=C(c2cccc(C)c2)C1=O [Example 121]
C. CS(=O)(=O)c1ccc(C2=C(c3ccccc3)CN(C3CCCCC3)C2=O)cc1 [Example 112]
D. Cc1ccc(C2=C(c3ccc(S(C)(=O)=O)cc3)C(=O)N(C)C2)cc1 [Example 105]
rank_up(items): orders items by reported IC50 in ascending numerical order. Rank them, then answer with their labels in that order. B, A, D, C

I. CS(=O)(=O)c1ccc(C2=C(c3cccc(F)c3)CN(C3CC3)C2=O)cc1 [Example 113]
II. Cc1ccc(C2=C(c3ccc(S(C)(=O)=O)cc3)CN(C3CC3)C2=O)cc1 [Example 125]
Sort I and II by IC50 descending and give the first. When you have decided, please share the label of that item. I
(I: 998 nM, II: 94.8 nM)

P. Cc1cccc(C2=C(c3ccc(S(C)(=O)=O)cc3)CN(C3CC3)C2=O)c1 [Example 126]
Q. CCCN1CC(c2cccc(Cl)c2)=C(c2ccc(S(N)(=O)=O)cc2)C1=O [Example 133]
R. CCCN1CC(c2ccc(S(C)(=O)=O)cc2)=C(c2ccc(F)cc2)C1=O [Example 123]
S. CCCN1CC(c2cccc(Br)c2)=C(c2ccc(S(N)(=O)=O)cc2)C1=O [Example 132]
T. NS(=O)(=O)c1ccc(C2=C(c3cccc(Cl)c3)CN(C3CC3)C2=O)cc1 [Example 137]
Form: Sort by [IC50] Order [ ascending ] Returns: the labels listed in the requested order. P, R, Q, S, T

a. CN1CC(c2ccc(S(C)(=O)=O)cc2)=C(c2ccc(Br)cc2)C1=O [Example 119]
b. Cc1cccc(C2=C(c3ccc(S(N)(=O)=O)cc3)CN(C3CC3)C2=O)c1 [Example 141]
Select one: a or b . Criterion: greater recorded IC50. # reply format: chosen label b

P. CN1CC(c2ccc(S(C)(=O)=O)cc2)=C(c2ccccc2)C1=O [Example 114]
Q. CN1CC(c2cccc(Cl)c2)=C(c2ccc(S(C)(=O)=O)cc2)C1=O [Example 109]
// compare: P vs Q , metric IC50, want the smaller Pick one; state its label. P

1. CCCN1CC(c2ccc(S(C)(=O)=O)cc2)=C(c2ccc(C)cc2)C1=O [Example 122]
2. CS(=O)(=O)c1ccc(C2=C(c3ccc(Cl)cc3)CN(C3CC3)C2=O)cc1 [Example 107]
3. CCCN1CC(c2ccc(F)cc2)=C(c2ccc(S(C)(=O)=O)cc2)C1=O [Example 106]
4. CN1CC(c2ccc(S(C)(=O)=O)cc2)=C(c2ccc(Cl)cc2)C1=O [Example 117]
List from greatest to least IC50. Would you mind listing the labels in the order asked for? 3, 2, 4, 1

A. CCCN1CC(c2ccc(S(C)(=O)=O)cc2)=C(c2ccccc2)C1=O [Example 115]
B. CCCN1CC(c2cccc(Cl)c2)=C(c2ccc(S(C)(=O)=O)cc2)C1=O [Example 110]
Sort A and B by IC50 descending and give the first. Response format: the label of the selected entry. B

###

- assayed_system: Cyclooxygenase-1 (Mus musculus)
- Construct: endogenous in cells
- test: COX-1 assay: calcimycin-stimulated 6-keto-PGF1 production in mouse peritoneal macrophages (RIA)
- assay_setup: calcimycin 1 μmol/L 1 h, 6-keto-PGF1 by RIA
pIC50: −log10 of the molar value.
measured_metric: pIC50

A. CCCN1CC(c2ccc(S(C)(=O)=O)cc2)=C(c2ccc(F)cc2)C1=O
B. CCCN1CC(c2ccc(S(C)(=O)=O)cc2)=C(c2ccccc2)C1=O
Kindly identify the item with the lower pIC50 figure among these two: A and B Write down the label of the entry you select. A
(A: 6.30, B: 6.83)

###

- assayed_system: Cyclooxygenase-1 (Mus musculus, UniProt P22437)
- Construct: endogenous in cells
- test: COX-1 assay: calcimycin-stimulated 6-keto-PGF1 production in mouse peritoneal macrophages (RIA)
- assay_setup: calcimycin 1 μmol/L 1 h, 6-keto-PGF1 by RIA
pIC50: −log10 of the molar value.
measured_metric: pIC50

- CS(=O)(=O)c1ccc(C2=C(c3ccc(Cl)cc3)C(=O)N(C3CCCCC3)C2)cc1: 6.84

I. CCCN1CC(c2ccc(S(C)(=O)=O)cc2)=C(c2cccc(C)c2)C1=O
II. Cc1cccc(C2=C(c3ccc(S(C)(=O)=O)cc3)CN(C3CC3)C2=O)c1
Endpoint returns whichever of I and II has the numerically higher pIC50. Output the label that corresponds to your choice. I

###

- assayed_system: Cyclooxygenase-2 (Mus musculus)
- Construct: endogenous in cells; host or cells: thioglycollate-elicited peritoneal macrophages of male C57BL-6J mice
- test: COX-2 assay: LPS-stimulated PGE2 production in mouse peritoneal macrophages (RIA)
- Format: cell-based, mice
- assay_setup: ratio of IC50 COX-1 to IC50 COX-2
measured_metric: COX-1/COX-2

P. CN1CC(c2ccc(S(C)(=O)=O)cc2)=C(c2ccc(Br)cc2)C1=O [Example 119]
Q. CS(=O)(=O)c1ccc(C2=C(c3ccccc3)C(=O)N(C3CC3)C2)cc1 [Example 116]
R. Cc1ccc(C2=C(c3ccc(S(C)(=O)=O)cc3)CN(C3CC3)C2=O)cc1 [Example 125]
Ranking by COX-1/COX-2 (descending) is requested for the entries above. Return value: ordered labels per request. Q, P, R
(Q: 18.5, P: 4.9, R: 2.5)

###

- assayed_system: Cyclooxygenase-2 (Mus musculus)
- Construct: endogenous in cells; host or cells: thioglycollate-elicited peritoneal macrophages of male C57BL-6J mice
- test: COX-2 assay: LPS-stimulated PGE2 production in mouse peritoneal macrophages (RIA)
- Type: cell-based, mice
- assay_setup: ratio of IC50 COX-1 to IC50 COX-2
measured_metric: COX-1/COX-2

• Cc1cccc(C2=C(c3ccc(S(C)(=O)=O)cc3)CN(C3CC3)C2=O)c1 = 14.3
• CCCN1CC(c2ccc(S(C)(=O)=O)cc2)=C(c2ccccc2)C1=O = 7.6
• CN1CC(c2ccc(S(C)(=O)=O)cc2)=C(c2ccc(F)cc2)C1=O = 14.5

A. CN1CC(c2ccc(S(C)(=O)=O)cc2)=C(c2ccccc2)C1=O
B. CN1CC(c2ccc(S(C)(=O)=O)cc2)=C(c2ccc(Cl)cc2)C1=O
// max by COX-1/COX-2 over [ A , B ] Identify your pick by its label. A

###

- assayed_system: Cyclooxygenase-1 (Mus musculus, UniProt P22437)
- Construct: endogenous in cells
- Sequence (P22437 27-602): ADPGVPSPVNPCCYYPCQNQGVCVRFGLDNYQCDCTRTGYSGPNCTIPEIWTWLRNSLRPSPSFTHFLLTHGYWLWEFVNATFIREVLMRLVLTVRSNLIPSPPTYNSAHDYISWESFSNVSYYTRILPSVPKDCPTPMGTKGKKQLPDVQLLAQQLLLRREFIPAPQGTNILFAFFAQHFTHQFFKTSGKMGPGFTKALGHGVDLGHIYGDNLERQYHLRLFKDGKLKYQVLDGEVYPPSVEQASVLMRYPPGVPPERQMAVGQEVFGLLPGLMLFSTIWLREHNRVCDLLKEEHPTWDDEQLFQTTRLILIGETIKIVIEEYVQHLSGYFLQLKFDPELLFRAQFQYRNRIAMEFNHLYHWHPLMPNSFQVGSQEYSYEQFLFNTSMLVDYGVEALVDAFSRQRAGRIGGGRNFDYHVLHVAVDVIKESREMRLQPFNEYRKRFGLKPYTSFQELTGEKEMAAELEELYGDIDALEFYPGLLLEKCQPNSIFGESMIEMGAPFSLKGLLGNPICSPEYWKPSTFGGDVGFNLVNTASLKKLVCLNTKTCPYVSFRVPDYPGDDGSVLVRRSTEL
- test: COX-1 assay: calcimycin-stimulated 6-keto-PGF1 production in mouse peritoneal macrophages (RIA)
- assay_setup: calcimycin 1 μmol/L 1 h, 6-keto-PGF1 by RIA
measured_metric: IC50 (µM)

a. Cc1ccc(C2=C(c3ccc(S(C)(=O)=O)cc3)CN(C3CC3)C2=O)cc1
b. CS(=O)(=O)c1ccc(C2=C(c3ccccc3)C(=O)N(C3CC3)C2)cc1
c. CN1CC(c2ccc(S(C)(=O)=O)cc2)=C(c2ccccc2)C1=O
d. CN1CC(c2ccc(S(C)(=O)=O)cc2)=C(c2ccc(Cl)cc2)C1=O
e. CCCN1CC(c2ccc(S(C)(=O)=O)cc2)=C(c2ccc(C)cc2)C1=O
Sort the listed entries by IC50, smallest first. List the labels, following the order given in the request. e, d, a, b, c
(e: 0.0913 µM, d: 0.159 µM, a: 0.236 µM, b: 0.468 µM, c: 1.12 µM)
